All figures here come from ChEMBL document CHEMBL4513216.

Record form. Attribute: INHIBITION. Fill in for each entry.
Tested on: Plasmodium falciparum
Test Details: Screen against P. falciparum Asexual Blood Stage (ABS), at 5uM
Type: functional, Dd2
Measurement Parameters: tested at 5 uM
Out of some 65,000 compounds screened, about 2,100 (3.2%) showed an effect of 50% or more. The median lay at about -52%. This excerpt belongs to a sample that is enriched for strong results.
Express the result in % but write the number alone.

What INHIBITION value was documented for this compound, Cc1cc(N2CCN(C(=O)c3cc(Cl)c[nH]3)CC2)nc(N)n1 ?
69.8

What INHIBITION value was documented for this compound, COCCOCC(=O)NC1CCN(c2ccccn2)CC1 ?
-16.8

What INHIBITION value was documented for this compound, Cc1ccc(-c2noc(CN3CCn4c(nnc4C4CC4)C3)n2)cc1 ?
-44.9

What INHIBITION value was documented for this compound, Cc1ccccc1-c1noc(CN2CCn3c(nnc3C3CC3)C2)n1 ?
51.7

What INHIBITION value was documented for this compound, CC(C)(C)NC(=O)Cn1c(=O)n(Cc2ccco2)c2ncccc21 ?
-56.2

What INHIBITION value was documented for this compound, Cc1cccc(NC(=O)c2[nH]nc(C(C)C)c2Br)n1 ?
57.6

What INHIBITION value was documented for this compound, O=C1C(N2CCOCC2)CCCN1Cc1cccc(C(F)(F)F)c1 (centres undefined) ?
-61.2

What INHIBITION value was documented for this compound, CCCN(CCC)c1ncc(S(=O)(=O)c2ccccc2)c(N)n1 ?
-9.26

What INHIBITION value was documented for this compound, CCCN(CCC)c1ncc(S(=O)(=O)c2ccc(C)cc2)c(N)n1 ?
14.8

What INHIBITION value was documented for this compound, CC(O)CN1CCc2[nH]nc(C(c3ccccc3)c3ccccc3)c2C1 (centres undefined) ?
42.3

What INHIBITION value was documented for this compound, COCc1nc(C(=O)N2CCCC(n3ccnc3)C2)cs1 (centres undefined) ?
-141

What INHIBITION value was documented for this compound, c1cnc(N2CC[C@@H](N3CCOCC3)[C@@H]2Cc2ccncc2)nc1 ?
-78

What INHIBITION value was documented for this compound, COc1ccccc1C1(CNc2ccc(C(=O)N(C)C)cn2)CC1 ?
-70.8

What INHIBITION value was documented for this compound, Cc1cccc(-c2noc(CN3CCn4c(nnc4C4CC4)C3)n2)c1 ?
-35.8

What INHIBITION value was documented for this compound, CCCN(CCC)c1ncc(S(=O)(=O)c2ccc(OC)cc2)c(N)n1 ?
67.6

What INHIBITION value was documented for this compound, CC(C)c1n[nH]c(C(=O)Nc2ccncc2)c1Br ?
-163

What INHIBITION value was documented for this compound, CCn1ncc2c1CN(CCc1cccc(Cl)c1)CC2COC (centres undefined) ?
-27.5

What INHIBITION value was documented for this compound, CC(C)c1nnc2n1CCN(Cc1ncc(-c3ccccc3)o1)C2 ?
62

What INHIBITION value was documented for this compound, COCC(=O)N1C[C@H]2CN(Cc3cccc(F)c3)C(=O)[C@H]2C1 ?
-63.1

What INHIBITION value was documented for this compound, CCc1cc(N(C)Cc2noc(CC(C)C)n2)ncn1 ?
-78.3

What INHIBITION value was documented for this compound, CC(C)(CNC1CCCN(Cc2ccccc2F)C1)CN1CCOCC1 (centres undefined) ?
56.4

What INHIBITION value was documented for this compound, CN1CCCC1c1cccc(Cc2ccccc2F)n1 (centres undefined) ?
-1.19

What INHIBITION value was documented for this compound, COc1ccc(F)cc1-c1ccccc1CC1CNCCNC1=O (centres undefined) ?
51.7

What INHIBITION value was documented for this compound, O=C(c1ccncc1)N1CC2(CCNCC2)c2cc(Cl)ccc21 ?
60

What INHIBITION value was documented for this compound, Cc1cnn(C2CCCN(C(=O)c3ccccc3-n3cnnn3)C2)c1 (centres undefined) ?
-52.2

What INHIBITION value was documented for this compound, CC(C)COCCNC1CCN(c2ccccn2)CC1 ?
61.2

What INHIBITION value was documented for this compound, C[C@@H](N)C(=O)N1CC2(CCNCC2)c2cc(Cl)ccc21 ?
48.2

What INHIBITION value was documented for this compound, CCCOCCN1CCC2(CC1)CC(=O)N(Cc1cc(F)cc(F)c1)C2 ?
38.7

What INHIBITION value was documented for this compound, COc1ccc(C(C)CCNC2CCN(c3ccccn3)CC2)cc1 (centres undefined) ?
68.2

What INHIBITION value was documented for this compound, CC(C)(CNC1CCCN(Cc2ccccn2)C1)CN1CCOCC1 (centres undefined) ?
-82.2

What INHIBITION value was documented for this compound, COc1ccccc1C1(CNc2snc(Cl)c2C#N)CCOCC1 ?
27

What INHIBITION value was documented for this compound, CN1CCC2(CC1)CN(C(=O)c1cccnc1)c1ccc(Cl)cc12 ?
57.5

What INHIBITION value was documented for this compound, Fc1ccccc1CN1CCCC(NC2CCOCC2)C1 (centres undefined) ?
-11.9

What INHIBITION value was documented for this compound, CCSc1cncc(N2CCC(NC(=O)C3CCCCC3)CC2)n1 ?
-11.6
